Data provenance is patent US20240308960A1.

# Agonist Activity (%) per record follows
biological target: Human orexin receptor type 2 (Homo sapiens, UniProt O43614); assay: Test Example 1: agonist activity for orexin receptor type 2 (aequorin luminescence, intracellular calcium mobilization); conditions: compound 10 μm; CHO cells transiently expressing human orexin receptor type 2 and apoaequorin; relative percentage of luminescence for the luminescence (100%) of Orexin A (100 μM)
Sequence (O43614 whole entry): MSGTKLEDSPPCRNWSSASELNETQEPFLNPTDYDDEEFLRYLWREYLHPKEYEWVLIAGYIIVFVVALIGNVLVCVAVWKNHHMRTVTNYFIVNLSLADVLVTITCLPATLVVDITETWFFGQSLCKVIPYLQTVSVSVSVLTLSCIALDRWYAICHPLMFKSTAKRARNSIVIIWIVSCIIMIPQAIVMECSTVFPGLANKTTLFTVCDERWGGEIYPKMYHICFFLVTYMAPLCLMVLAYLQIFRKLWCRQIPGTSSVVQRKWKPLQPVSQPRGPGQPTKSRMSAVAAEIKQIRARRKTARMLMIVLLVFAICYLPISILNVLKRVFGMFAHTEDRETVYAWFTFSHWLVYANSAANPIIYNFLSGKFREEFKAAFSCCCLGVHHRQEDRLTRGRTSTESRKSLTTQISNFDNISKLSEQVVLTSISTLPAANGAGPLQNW
Note: state the figure and append the unit.

// below: answered compounds
get_value(item= CC(C)c1nc(C2(C)CCN(C(=O)Nc3c(F)cccc3N3CCN(C(C)C)CC3)CC2)no1 , readout=Agonist Activity (%)) returns 111%

get_value(item= Cc1ccc(C2CCN(C(=O)Nc3c(C(=O)N(C)C)cccc3N3CCN(C(C)C)CC3)CC2)cc1 , readout=Agonist Activity (%)) returns 150%

get_value(item= Cc1ccc(C2CCN(C(=O)Nc3c(F)cccc3N3CCN(C(C)C)CC3)CC2)cc1 , readout=Agonist Activity (%)) returns 132%

get_value(item= CC(C)N1CCN(c2cccc(Cl)c2NC(=O)N2CCC(C)(c3ncc(C4CC4)s3)CC2)CC1 , readout=Agonist Activity (%)) returns 157%

get_value(item= CC(C)N1CCN(c2cccc(Cl)c2NC(=O)N2CCC(C)(c3noc(C4(C(F)(F)F)CC4)n3)CC2)CC1 , readout=Agonist Activity (%)) returns 163%

Further cases:
get_value(item= Cc1ccc(C2CCN(C(=O)Nc3c(F)cccc3-c3cnn(C4CC4)c3)CC2)cc1 , readout=Agonist Activity (%)) returns 71%

get_value(item= COCCN1CCN(c2ccccc2NC(=O)N2CCC(c3ccc(C)cc3)CC2)CC1 , readout=Agonist Activity (%)) returns 141%
